# experiment-summary: Toxicity against rat WB-F344 cells assessed as cell viability at 20 ppm after 1 hr using trypan blue staining by LDH assay
# Type: cell-based
# experimental-parameters: read-out: Activity
reported-endpoint: viability at 1 h, 20 ppm (%)
Express the result in % but write the number alone.

May I ask what viability at 1 h, 20 ppm has been recorded for `C[C@@H]1[C@H](O)[C@@H](C)/C=C/C=C/C=C/C=C/C=C/C=C/C=C/[C@H](O[C@@H]2O[C@H](C)[C@@H](O)[C@H](N)[C@@H]2O)C[C@@H]2O[C@](O)(C[C@@H](O)C[C@@H](O)[C@H](O)CC[C@@H](O)C[C@@H](O)CC(=O)O[C@H]1C)C[C@H](O)[C@H]2C(=O)O` ?
0

Hello, the source for this data is ChEMBL document CHEMBL1147296, in case you need it.
